# System: Escherichia coli
# assay.remarks: Inhibition of Escherichia coli DNA topoisomerase 4 assessed as residual enzyme activity at 100 uM using relaxed pNO1 plasmid and biotinylated oligonucelotide incubated for 30 mins by fluorescence based DNA relaxation assay
reported.property: Activity (%)

compound	Activity (%)
COC(=O)CC(=O)Nc1nc2c(s1)C[C@@H](NC(=O)c1cc(Cl)c(Cl)[nH]1)CC2	97
Nc1ncc2c(n1)CCC(NC(=O)c1cc(Cl)c(Cl)[nH]1)C2 (stereo not given)	96
O=C(O)C(=O)Nc1nc2c(s1)C[C@@H](NC(=O)c1cc(Cl)c(Cl)[nH]1)CC2	82
Nc1ncc2c(n1)CCC(NC(=O)c1cc3ccccc3[nH]1)C2 (stereo not given)	97
Nc1ncc2c(n1)CCC(NC(=O)c1cc(Br)c[nH]1)C2 (stereo not given)	97

---

# target.entity: DNA gyrase (Staphylococcus aureus, UniProt P0A0K8+P20831)
# assay.remarks: Inhibition of Staphylococcus aureus DNA gyrase using relaxed pNO1 plasmid and biotinylated oligonucelotide incubated for 30 mins by fluorescence based DNA super-coiling assay
reported.property: IC50 (µM)
Your answer is read as µM, so omit the unit and give the number.

Record excerpt, results attached:
test.smiles	unit.tag	IC50
COC(=O)CC(=O)Nc1nc2c(s1)C[C@@H](NC(=O)c1cc(Br)c(Br)[nH]1)CC2	µM	110
O=C(O)CC(=O)Nc1nc2c(s1)C[C@@H](NC(=O)c1cc(Br)c(Br)[nH]1)CC2	µM	86

// O=C(O)C(=O)Nc1nc2c(s1)C[C@@H](NC(=O)c1cc(Br)c(Br)[nH]1)CC2 : IC50 value = 120

// CCOC(=O)C(=O)Nc1nc2c(s1)C[C@@H](NC(=O)c1cc(Br)c(Br)[nH]1)CC2 : IC50 value = 80

---

# target.entity: DNA gyrase (Staphylococcus aureus) (UniProt P0A0K8+P20831)
# assay.remarks: Inhibition of Staphylococcus aureus DNA gyrase assessed as residual enzyme activity at 100 uM using relaxed pNO1 plasmid and biotinylated oligonucelotide incubated for 30 mins by fluorescence based DNA super-coiling assay
# Type: protein-complex assay
reported.property: Activity (%)

test.smiles	unit.tag	data.value
O=C(O)CC(=O)Nc1nc2c(s1)C[C@@H](NC(=O)c1cc(Cl)c(Cl)[nH]1)CC2	%	87

P. O=C(O)CC(=O)Nc1nc2c(s1)C[C@@H](NC(=O)c1cc(Br)c[nH]1)CC2
Q. COC(=O)CC(=O)Nc1nc2c(s1)C[C@H](NC(=O)c1cc(Br)c(Br)[nH]1)CC2
Choose between P and Q : whose measured Activity value is numerically larger? Label of pick, please.
P
(P: 110%, Q: 64%)

---

# target.entity: DNA gyrase (Escherichia coli, UniProt P0AES4+P0AES6)
# assay.remarks: Inhibition of Escherichia coli DNA gyrase using relaxed pNO1 plasmid and biotinylated oligonucelotide incubated for 30 mins by fluorescence based DNA super-coiling assay
reported.property: IC50 (nM)

Record excerpt, results attached:
compound	IC50 / nM
COC(=O)CC(=O)Nc1nc2c(s1)C[C@@H](NC(=O)c1cc3ccccc3[nH]1)CC2	35000
Nc1nc2c(s1)CC(CNC(=O)c1cc(Br)c(Br)[nH]1)CC2 (configuration not stated)	120000
CCOC(=O)C(=O)Nc1nc2c(s1)C[C@@H](NC(=O)c1cc(Br)c(Br)[nH]1)CC2	100
O=C(O)C(=O)Nc1nc2c(s1)C[C@@H](NC(=O)c1cc(Cl)c(Cl)[nH]1)CC2	590
CCOC(=O)C(=O)Nc1nc2c(s1)C[C@@H](NC(=O)c1cc(Cl)c(Cl)[nH]1)CC2	400

1. CC(=O)Nc1nc2c(s1)C[C@@H](NC(=O)c1cc(Br)c(Br)[nH]1)CC2
2. Nc1nc2c(s1)C[C@@H](NC(=O)c1cc3ccccc3[nH]1)CC2
Choose between 1 and 2 : whose measured IC50 value is numerically larger? Label of pick, please.
2
(2: 21000 nM, 1: 150 nM)

src = ChEMBL document CHEMBL3588817
